# study system: MERTK (UniProt Q12866)
# Sequence (Q12866 whole entry, looked up): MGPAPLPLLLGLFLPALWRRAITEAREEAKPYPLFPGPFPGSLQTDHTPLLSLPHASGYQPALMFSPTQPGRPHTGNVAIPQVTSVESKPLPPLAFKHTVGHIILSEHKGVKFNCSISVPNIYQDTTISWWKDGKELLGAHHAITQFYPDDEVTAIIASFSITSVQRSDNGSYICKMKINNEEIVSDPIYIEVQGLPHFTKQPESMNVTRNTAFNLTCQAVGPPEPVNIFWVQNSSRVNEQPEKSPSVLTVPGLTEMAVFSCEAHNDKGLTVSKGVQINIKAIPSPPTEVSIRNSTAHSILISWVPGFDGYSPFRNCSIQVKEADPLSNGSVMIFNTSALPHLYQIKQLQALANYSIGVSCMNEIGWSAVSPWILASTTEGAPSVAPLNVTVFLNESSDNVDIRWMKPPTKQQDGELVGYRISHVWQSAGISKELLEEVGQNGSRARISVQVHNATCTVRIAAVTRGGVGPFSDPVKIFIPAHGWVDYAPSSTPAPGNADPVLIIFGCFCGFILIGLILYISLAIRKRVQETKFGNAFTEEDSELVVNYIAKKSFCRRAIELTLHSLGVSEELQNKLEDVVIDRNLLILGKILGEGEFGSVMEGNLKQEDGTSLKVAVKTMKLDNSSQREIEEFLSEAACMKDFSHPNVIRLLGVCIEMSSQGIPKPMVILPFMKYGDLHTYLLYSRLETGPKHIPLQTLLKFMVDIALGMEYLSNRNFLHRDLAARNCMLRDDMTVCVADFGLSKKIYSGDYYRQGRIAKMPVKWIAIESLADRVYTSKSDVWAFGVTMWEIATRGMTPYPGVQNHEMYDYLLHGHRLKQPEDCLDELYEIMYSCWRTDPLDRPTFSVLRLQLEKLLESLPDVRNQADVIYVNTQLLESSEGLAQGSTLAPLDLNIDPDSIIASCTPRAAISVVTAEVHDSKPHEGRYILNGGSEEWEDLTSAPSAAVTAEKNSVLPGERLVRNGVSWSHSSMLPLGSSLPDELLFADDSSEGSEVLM
# assay info: phosphorylation enrichment, bacterial display (enrichment ratio); higher = better substrate or ligand; peptides without Tyr show the background;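 also: 11-residue human phosphosite peptides and single-mutation variants displayed on the E. coli surface, counted by deep sequencing, each peptide's frequency after selection divided by its frequency in the unselected input library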;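 also: frequency after pTyr selection over input frequency; kinase dosed for 20-30% of maximal phosphorylation in three min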
result type: phosphorylation enrichment

{"sequence": "YSQNIYIQNRN [PKP2_Y631]", "study system": "MERTK (UniProt Q12866)", "meas value": 1.43}
{"sequence": "LFEDRYLLGPS [ASS1_Y87_T91P_YF]", "study system": "MERTK (UniProt Q12866)", "meas value": 0.58}
{"sequence": "ATARPYSPYII [LRP5_Y1528_R1529S]", "study system": "MERTK (UniProt Q12866)", "meas value": 0.375}
{"sequence": "FDAHIYEGCVI [PRKCD_Y64_R67C]", "study system": "MERTK (UniProt Q12866)", "meas value": 0.635}
{"sequence": "EWKNNYPRLRE [OPA1_Y582]", "study system": "MERTK (UniProt Q12866)", "meas value": 0.404}
{"sequence": "TRSYDYTEGGD [FGF7_Y58_M59T]", "study system": "MERTK (UniProt Q12866)", "meas value": 0.463}
{"sequence": "GKSFTYAAFHA [KCNT1_Y563]", "study system": "MERTK (UniProt Q12866)", "meas value": 0.819}
{"sequence": "SARSAYQEAMD [SFN_Y151]", "study system": "MERTK (UniProt Q12866)", "meas value": 0.38}
{"sequence": "THQNSYQPGRK [CEFIP_Y210]", "study system": "MERTK (UniProt Q12866)", "meas value": 0.34}
{"sequence": "PVKSEYPSIKL [NPC2_Y119]", "study system": "MERTK (UniProt Q12866)", "meas value": 0.465}
{"sequence": "VNNTVYGIDAM [EIF3J_Y143_A141T]", "study system": "MERTK (UniProt Q12866)", "meas value": 0.349}
{"sequence": "KRIKSYNQEND [RPGRIP1L_Y448_L447S]", "study system": "MERTK (UniProt Q12866)", "meas value": 0.43}
{"sequence": "QTLTDYDIRFY [CSNK2A1_Y131]", "study system": "MERTK (UniProt Q12866)", "meas value": 0.484}
{"sequence": "FTFDPYSEEDP [IL2RB_Y387_YF]", "study system": "MERTK (UniProt Q12866)", "meas value": 0.426}
{"sequence": "VYSTDCYRVGG [NTRK2_Y706_Y706C]", "study system": "MERTK (UniProt Q12866)", "meas value": 7.43}
{"sequence": "PVGVLYKVKVY [PTS_Y128]", "study system": "MERTK (UniProt Q12866)", "meas value": 0.669}
{"sequence": "TPGPNYRPGYN [USH2A_Y463]", "study system": "MERTK (UniProt Q12866)", "meas value": 0.487}
{"sequence": "HKLSFNEFDFE [BTK_Y40_Y40N_YF]", "study system": "MERTK (UniProt Q12866)", "meas value": 0.712}
{"sequence": "FCVDCYKNFVA [FHL1_Y213_YF]", "study system": "MERTK (UniProt Q12866)", "meas value": 0.487}
{"sequence": "IIQRAYRGHLL [SCN1A_Y1926_R1928G]", "study system": "MERTK (UniProt Q12866)", "meas value": 0.47}
{"sequence": "NLVSEYQQFQD [TUBB3_Y422_D417N_YF]", "study system": "MERTK (UniProt Q12866)", "meas value": 0.429}
{"sequence": "ALTDNYMYVVI [HAGH_Y61_L64V]", "study system": "MERTK (UniProt Q12866)", "meas value": 4.21}
{"sequence": "GHLFAYDWIRI [BEST1_Y227_S231R_YF]", "study system": "MERTK (UniProt Q12866)", "meas value": 4.78}
{"sequence": "YGGLRYGYGGL [KRTAP20-2_Y13_V17G]", "study system": "MERTK (UniProt Q12866)", "meas value": 0.381}
{"sequence": "DHYNQYEQQKM [CHD7_Y75]", "study system": "MERTK (UniProt Q12866)", "meas value": 0.359}
{"sequence": "SAGSSYSISVI [PAX5_Y179_G183V]", "study system": "MERTK (UniProt Q12866)", "meas value": 0.472}
{"sequence": "CEHFSYYGMKA [SLC15A2_Y60_R57H]", "study system": "MERTK (UniProt Q12866)", "meas value": 1.54}
{"sequence": "CGPLLYGLVHQ [PRKCG_Y122_S119P]", "study system": "MERTK (UniProt Q12866)", "meas value": 4.98}
{"sequence": "SNKLTYGTMVF [ACOX1_Y275]", "study system": "MERTK (UniProt Q12866)", "meas value": 0.495}
